Below are compounds with their pIC50 as measured on Human immunodeficiency virus type 1 protease (Human immunodeficiency virus 1).
// pIC50: -log10(molar conc.)

{"columns": ["SMILES STRUCTURE", "pIC50"],
 "data": [
  ["CC(C)(C)NC(=O)[C@@H]1C[C@@H]2CCCC[C@@H]2CN1C[C@@H](O)[C@H](Cc1ccccc1)NC(=O)C1=CCCSC1", 6.78],
  ["CC(C)(C)NC(=O)[C@@H]1C[C@@H]2CCCC[C@@H]2CN1C[C@@H](O)[C@H](Cc1ccccc1)NC(=O)[C@@H]1CCS(=O)(=O)C1", 6.70],
  ["CC(C)(C)NC(=O)[C@@H]1C[C@@H]2CCCC[C@@H]2CN1C[C@@H](O)[C@H](Cc1ccccc1)NC(=O)[C@@H]1CCCS(=O)(=O)C1", 8.04]
]}

Request: Quick one: pIC50 for CC(C)(C)NC(=O)[C@@H]1C[C@@H]2CCCC[C@@H]2CN1C[C@@H](O)[C@H](Cc1ccccc1)NC(=O)[C@@H]1CCSC1 ?
Result: 6.47
